# key: entry, value: Ratio
test system: HepG2; experiment: Cytotoxicity against human HepG2 cells assessed as surviving fraction ratio at 12.5 uM incubated for 2 hrs prior to 8Gy gamma-irradiation measured after 48 hrs by ELISA reader relative to control; format: functional

Guide cases for Ratio, answers given:
{"columns": ["Sample Smiles", "Ratio"],
 "data": [
  ["C/C(=N/NC(=O)c1sc2c(c1N)CCCC2)c1ccc(NS(=O)(=O)c2ccc(C)cc2)cc1", 0.524],
  ["C/C(=N/n1c(N)c(C#N)c(-c2ccc([N+](=O)[O-])cc2)c(C#N)c1=O)c1ccc(NS(=O)(=O)c2ccc(C)cc2)cc1", 0.603],
  ["Cc1ccc(S(=O)(=O)Nc2ccc(C(=O)/C=C/c3ccc(Br)cc3)cc2)cc1", 0.471]
]}

Req: Returns the measured Ratio for the input molecule. Input: `C/C(=N\NC(=O)c1sc(N)c(C#N)c1N)c1ccc(NS(=O)(=O)c2ccccc2)cc1`
Resp: 0.386

Req: Returns the measured Ratio for the input molecule. Input: `C/C(=N\NC(=O)c1sc(N)c(C#N)c1N)c1ccc(NS(=O)(=O)c2ccc(C)cc2)cc1`
Resp: 0.227

###

test system: HepG2; experiment: Cytotoxicity against human HepG2 cells assessed as surviving fraction ratio at 12.5 uM incubated for 2 hrs prior to 8Gy gamma-irradiation measured after 48 hrs by ELISA reader relative to control; assay type: functional
Reported Property: Ratio
Kindly provide the number alone.

{"columns": ["Compound", "Reported Property", "Result"],
 "data": [
  ["C/C(=N/NC(=O)C(C#N)C(=S)S)c1ccc(NS(=O)(=O)c2ccc(C)cc2)cc1 (stereo not drawn)", "Ratio", 0.206]
]}

Req: Returns the measured Ratio for the input compound. Input: `C/C(=N/n1c(N)cc(N)c(C#N)c1=O)c1ccc(NS(=O)(=O)c2ccccc2)cc1`
Resp: 0.194

Req: Returns the measured Ratio for the input compound. Input: `Cc1ccc(S(=O)(=O)Nc2ccc(C(=O)/C=C/c3ccc([N+](=O)[O-])cc3)cc2)cc1`
Resp: 0.451

Hello, the source for this data is ChEMBL document CHEMBL3407449, in case you need it.
